Assign normalized growth to each entry below.
ASSAY_PROCEDURE: chemical genetic growth profiling, strain panel (AID 1159580);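 further: tested at 20 µM; growth read once vehicle control cultures reached saturation at 30 °C; 1 = growth at the plate median or of vehicle wells; lower values mean less growth of the strain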
CONDITION_NOTES: S. cerevisiae deletion strains, growth OD, locus YMR205C, strain PFK2 (second series), stronger effect = lower value
The whole screen tested about 5,500 compounds, of which about 2,000 (36%) were called active. Not shown: some 18% with an inconclusive outcome. The list shows a part of the results.
Give bare numbers.

These solved cases illustrate the format of a correct answer.
CSc1nnc(COc2ccc(C)c3c2CCC3)n1-c1ccccc1 :: 0.974
S=C(N/N=C\c1cccs1)NC1CC2CCC1C2 (stereo unspecified) :: 0.946
O=c1c(-c2ccccc2)c(O)c2cccc3c4ccccc4n1c23 :: 0.1
OC(CSc1ccccc1)CN1CCN(c2nc(-c3ccccc3)ns2)CC1 (stereo unspecified) :: 0.944
S=C(Nc1ccc(Cl)cc1)Nc1ccc(Cl)cc1 :: 0.871
N#C/C(=N/Nc1cccc(C(F)(F)F)c1)C(=O)c1csc(-c2cccnc2)n1 :: 0.807
O=C(c1cc2c(s1)-c1ccccc1CC2)N1CCN(Cc2ccccc2)CC1 :: 0.981
CCOC(=O)c1cnc2c(c(C)nn2C)c1Sc1nnc(SC)s1 :: 0.859

List reported normalized growth for each of these compounds:
1. CC(C)(C)c1ccc(C(=O)NNC(=S)Nc2ccc(Cl)cc2)cc1
2. FC(F)(F)c1cc(-c2ccc(Cl)cc2)n[nH]1
3. CC(C)(C)C(=O)c1sc2sc(C(=O)C(C)(C)C)c(N)c2c1N

Response:
1. 0.933
2. 0.846
3. 0.965

----------
ASSAY_PROCEDURE: chemical genetic growth profiling, strain panel (AID 1159580)
CONDITION_NOTES: S. cerevisiae deletion strains, growth OD, locus YKL085W, strain MDH1 (second series), stronger effect = lower value
Screen size: about 5,500 compounds; about 2,000 (36%) were called active. Roughly 18% stayed inconclusive and do not appear here. The list shows a part of the results.
MEASURED_PARAMETER: normalized growth

These solved cases illustrate the format of a correct answer.
COc1ccc2c(c1)[C@]13CCCC[C@H]1[C@H](C2)N(C)CC3 :: 0.984 (inactive)
COC(=O)[C@]1(C)CC[C@]2(C)CC[C@]3(C)C4=CC=C5C(=CC(=O)C(O)=C5C)[C@]4(C)CC[C@@]3(C)[C@@H]2C1 :: 1.01 (inactive)
CC(=O)Oc1cc2c(c(C)c1OC(C)=O)CC1OC13C2(C)CCC1(C)C2CC(C)(C(=O)O)CCC2(C)CCC13C (centres undefined) :: 1 (inactive)

Form field normalized growth, entry "CC1=C(O)C(=O)C=C2C1=CC=C1[C@@]2(C)CC[C@@]2(C)[C@@H]3C[C@](C)(C(=O)O)CC[C@]3(C)CC[C@]12C" : 0.941 (inactive)

----------
ASSAY_PROCEDURE: chemical genetic growth profiling, strain panel (AID 1159580);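 further: tested at 20 µM; growth read once vehicle control cultures reached saturation at 30 °C; 1 = growth at the plate median or of vehicle wells; lower values mean less growth of the strain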
CONDITION_NOTES: S. cerevisiae deletion strains, growth OD, locus YDL035C, strain GPR1, stronger effect = lower value
In all, about 5,500 compounds went through this assay and about 2,000 (36%) were called active. Roughly 18% stayed inconclusive and do not appear here. This is one part of the list. Where a SMILES comes first, the peptide text is derived from it. Side-chain parts run from the residue outwards. [ ]: non-standard residue; d: D form. The star is where a group is joined. X1 = CCC(C)C(N)C1=NC(C(=O)*)CS1; Orn = NCCC[CH](N)C(=O)O
MEASURED_PARAMETER: normalized growth

These solved cases illustrate the format of a correct answer.
COc1c2occc2c(OC)c2c(=O)cc(C)oc12 :: 1.05 (inactive)
C[C@]12CCC(=O)C=C1CCC1C2[C@@H](O)C[C@@]2(C)C1CC[C@]2(O)C(=O)COC(=O)CCC(=O)O (stereo partly drawn) :: 1.01 (inactive)
COc1c2ccoc2cc2oc(C)cc(=O)c12 :: 0.972 (inactive)

List reported normalized growth for each of these compounds:
1. CCC(C)C(N)C1=NC(C(=O)NC(CC(C)C)C(=O)NC(CCC(=O)O)C(=O)NC(C(=O)NCCCCC2NC(=O)C(CC(N)=O)NC(=O)C(CC(=O)O)NC(=O)C(Cc3cnc[nH]3)NC(=O)C(Cc3ccccc3)NC(=O)C(C(C)CC)NC(=O)C(CCCN)NC2=O)C(C)CC)CS1 (stereo not drawn) (cyclo(DNK([Ile-Glu-Leu-X1])[Orn]IFH); configuration not given here)
2. CN1CCN(CC(=O)N2c3ccccc3C(=O)Nc3cccnc32)CC1
3. CC(=O)OCC1=C(C(=O)O)N2C(=O)[C@@H](NC(=O)CCCC(N)C(=O)O)C2SC1 (stereo partly drawn)

Response:
1. 0.998 (inactive)
2. 1.02 (inactive)
3. 1.03 (inactive)

List reported normalized growth for each of these compounds:
1. COc1cc2cc3c4cc(OC)c(OC)cc4cc[n+]3c(C)c2cc1OC
2. COc1ccc2c(=O)ccoc2c1

Response:
1: 0.998 (inactive); 2: 1 (inactive)

----------
Assign normalized growth to each entry below.
ASSAY_PROCEDURE: chemical genetic growth profiling, strain panel (AID 1159580);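 further: tested at 20 µM; growth read once vehicle control cultures reached saturation at 30 °C; 1 = growth at the plate median or of vehicle wells; lower values mean less growth of the strain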
CONDITION_NOTES: S. cerevisiae deletion strains, growth OD, locus YMR231W, strain pep5, stronger effect = lower value
The campaign covered roughly 5,500 compounds. About 2,000 (36%) were called active. Inconclusive results (about 18%) are left out. Some of the results follow.

These solved cases illustrate the format of a correct answer.
COc1cc2cc3c4cc(OC)c(OC)cc4cc[n+]3c(C)c2cc1OC :: 0.949 (inactive)
C[C@]12CCC3C(CC[C@H]4C[C@H](OS(=O)(=O)O)CC[C@]34C)C1CCC2=O (stereo not given in full) :: 1.03 (inactive)
Cc1cc(C(C)(C)C)c(O)c(C)c1CC1=NCCN1 :: 1.01 (inactive)
CC(=O)OCC1=C(C(=O)O)N2C(=O)[C@@H](NC(=O)CCCC(N)C(=O)O)C2SC1 (stereo not given in full) :: 0.988 (inactive)
CC(=O)[C@@]1(O)CCC2C3CCC4=CC(=O)CC[C@]4(C)C3CC[C@@]21C (stereo not given in full) :: 0.996 (inactive)

List reported normalized growth for each of these compounds:
1. CC(=O)OCC(=O)[C@@]1(O)CCC2C3CCC4=CC(=O)CC[C@]4(C)C3[C@@H](O)C[C@@]21C (stereo not given in full)
2. C[C@]12CCC(=O)C=C1CCC1C2[C@@H](O)C[C@@]2(C)C1CC[C@]2(O)C(=O)COC(=O)CCC(=O)O (stereo not given in full)
3. O=c1oc2c(O)c(O)cc3c(=O)oc4c(O)c(O)cc1c4c23
4. CC(=O)OCC(=O)[C@@]12OC3(CCCC3)O[C@@H]1CC1C3CCC4=CC(=O)C=C[C@]4(C)[C@@]3(F)[C@@H](O)C[C@@]12C (stereo not given in full)
5. NCCc1cc(O)c(O)cc1O
6. NC(N)=NC(N)=Nc1ccccc1
7. CN[C@@H]1[C@@H](O[C@H]2O[C@H](CO)[C@@H](N)[C@H](O)[C@H]2O)O[C@H]2C[C@@H](N)[C@H](O[C@H]3[C@H](O)[C@@H](O)[C@H](N)C[C@@H]3N)O[C@@H]2[C@@H]1O
8. Cc1cc(C(C)(C)C)cc(C)c1CC1=NCCN1

Response:
1: 1.02 (inactive); 2: 1.01 (inactive); 3: 0.728 (active); 4: 1.01 (inactive); 5: 0.98 (inactive); 6: 0.994 (inactive); 7: 1.01 (inactive); 8: 1 (inactive)

List reported normalized growth for each of these compounds:
1. COc1ccc(C2C(=O)c3ccccc3C2=O)cc1
2. COc1cc(-c2coc3cc(O[C@@H]4O[C@H](CO)[C@@H](O)[C@H](O)[C@H]4O)c(OC)c(O)c3c2=O)cc(O)c1OC
3. CC(=O)[O][Hg][c]1ccccc1
4. COc1cnc(NS(=O)(=O)c2ccc(N)cc2)nc1
5. CN(C)CCc1c[nH]c2ccc(CS(=O)(=O)N3CCCC3)cc12
6. O=C1c2ccccc2C(=O)C1c1ccccc1
7. COc1cc2c(cc1OC)[C@@]13CCN4CC5=CCOC6CC(=O)N2C1[C@H]6[C@H]5C[C@H]43 (stereo not given in full)

Response:
1. 1.02 (inactive)
2. 0.997 (inactive)
3. 0.0683 (active)
4. 0.998 (inactive)
5. 0.991 (inactive)
6. 1 (inactive)
7. 0.995 (inactive)

----------
ASSAY_PROCEDURE: chemical genetic growth profiling, strain panel (AID 1159580);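 further: tested at 20 µM; growth read once vehicle control cultures reached saturation at 30 °C; 1 = growth at the plate median or of vehicle wells; lower values mean less growth of the strain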
CONDITION_NOTES: S. cerevisiae deletion strains, growth OD, locus YOR270C, strain vph1
About 2,000 (36%) of roughly 5,500 compounds were called active. Roughly 18% stayed inconclusive and do not appear here. Rule as the data show it: active = normalized growth mostly below about 0.91 (no sharp cut-off); inconclusive = no clear call, values can overlap the other calls; inactive = mostly above about 0.92. This is one part of the list.
Pick from active, inactive when you respond.

Check out these entries, answers already filled in.
CC1(C)C=Cc2cc3ccc(=O)oc3cc2O1 :: active
Cc1ccc(N(CC2=NCCN2)c2cccc(O)c2)cc1 :: inactive

Switching to the query record.
Request: Hi team, can someone confirm the assay call for "CCNc1nc(Cl)nc(NCC)n1" ?
Response: inactive
